These measurements were taken from paper PMC9482650.

Biological target: T1, DLG3_1, Q92796
T1 sequence (Q92796 125-227, limits assumed, looked up): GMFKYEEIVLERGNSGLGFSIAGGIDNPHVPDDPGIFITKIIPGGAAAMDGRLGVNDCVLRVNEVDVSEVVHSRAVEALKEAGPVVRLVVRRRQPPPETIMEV
Experiment: holdup assay
Parameters: key: below the threshold = too weak to quantify, mostly under pKd 3.1 to 4
Settings: plain residues with an end cap or a label only (N-terminal biotin on a linker: ado-ado)
QUANTITY_MEASURED: pKd

| BINDER | QUANTITY_MEASURED | RECORDED_VALUE |
| --- | --- | --- |
| LSEFKAMDSI [CTNNA1, P35221] | pKd | below the threshold |
| DDPSTAETVL [ABCA7, Q8IZY2] | pKd | below the threshold |
| HSGYRLNDYV [CLDN14, O95500] | pKd | below the threshold |
| QKNRKAQEDL [CES3, Q6UWW8] | pKd | below the threshold |
| EALLQMESVA [CAVIN3, Q969G5] | pKd | below the threshold |
| QSPANIYYKV [EFNB1, P52799] | pKd | below the threshold |
| PLSPEQPTKL [TRIM50, Q86XT4] | pKd | below the threshold |
| TSSMRGMDAV [RSRC2, Q7L4I2] | pKd | below the threshold |
| NLSIEKETKL [ASNSD1, Q9NWL6] | pKd | below the threshold |
| TSQESEDTYL [TBC1D10A, Q9BXI6] | pKd | below the threshold |
| SKENVQETQI [LRRC4B, Q9NT99] | pKd | 3.73 |
| VKPQVSESKL [ACOT8, O14734] | pKd | below the threshold |
| GNSVLKSTQF [SLC22A12, Q96S37] | pKd | below the threshold |
| VRNLPESEEL [MYOZ3, Q8TDC0] | pKd | below the threshold |
| PKRSFIESNV [TANC1, Q9C0D5] | pKd | 4.15 |
| IPLDGETEEL [MYOZ1, Q9NP98] | pKd | below the threshold |
| AKPSRISTVV [IQSEC2, Q5JU85] | pKd | 4.3 |
| YNNCLEILRV [DCAF7, P61962] | pKd | below the threshold |
| QMNQTLPVQV [EPHB3, P54753] | pKd | below the threshold |
| LPHPHSTTRV [NLGN2, Q8NFZ4] | pKd | below the threshold |
| QGPVETESVV [SLC45A4, Q5BKX6] | pKd | 3.88 |
| SNAGNTATKA [NOSTRIN, Q8IVI9] | pKd | below the threshold |
| NHSSSPETTA [TRMT13, Q9NUP7] | pKd | below the threshold |
| RRISSLESEV [GRIN2C, Q14957] | pKd | 4.37 |
| IKAIVDLTGL [TRAF2, Q12933] | pKd | below the threshold |
| PDGQCTVTEV [RNF146, Q9NTX7] | pKd | 3.87 |
| RRLPGKETMA [GRIK2, Q13002] | pKd | below the threshold |
| EVNETDDTKM [KCNJ1, P48048] | pKd | below the threshold |
| SARSRLSSNL [HCN2, Q9UL51] | pKd | below the threshold |
| VYPNAKVELV [PDLIM4_iso2, P50479;P50479-1] | pKd | below the threshold |
| QSLNRMEYIV [JAG1, P78504] | pKd | below the threshold |
| TLPRKRMSSI [GPRC6A, Q5T6X5] | pKd | below the threshold |
